Reported values of IC50 for individual entries
test system: TF-1/Flt3-D835Y cells; assay: Inhibitor sensitivity of TF-1 cell populations, CellTiter-Blue, 72 h; type: cell-based, human; settings: Homo sapiens, TF-1, 72 h, read-out: Inhibitor sensitivity of TF-1 Cell Populations (IC50, nM) Flt3-D835Y
measured_attribute: IC50

| molecule | assay_target | endpoint_result |
| --- | --- | --- |
| COc1cc(N2CCC(N3CCN(C)CC3)CC2)ccc1Nc1ncc(Cl)c(Nc2ccccc2S(=O)(=O)C(C)C)n1 [TAE-684, reference compound] | TF-1/Flt3-D835Y cells | 83 nM |
| COc1cc(N2CCC(O)CC2)ccc1Nc1nc(Nc2ccccc2S(=O)(=O)C(C)C)c2cn[nH]c2n1 | TF-1/Flt3-D835Y cells | 597 nM |

----------
tested on: TF-1/Flt3-D835Y cells; assay: Inhibitor sensitivity of TF-1 cell populations, CellTiter-Blue, 72 h; format: cell-based, human; conditions: Homo sapiens, TF-1, 72 h; read-out: Inhibitor sensitivity of TF-1 Cell Populations (IC50, nM) Flt3-D835Y

| test_smiles | IC50 |
| --- | --- |
| CCN1CCN(Cc2ccc(NC(=O)c3ccc(C)c(Oc4ccnc5[nH]ccc45)c3)cc2C(F)(F)F)CC1 | > 1000 nM |

----------
tested on: Flt3-ITD+ AML cell lines (MV4-11, MOLM-13, MOLM-14); assay: Growth inhibition across Flt3-ITD+ AML cell lines; assay type: cell-based; conditions: Homo sapiens, 72 h, read-out: IC50 values for growth inhibition in all three Flt3-ITD+ AML cell lines
measured_attribute: IC50

| compound | assay_target | measured_attribute | endpoint_result |
| --- | --- | --- | --- |
| COc1cc(N2CCC(O)CC2)ccc1Nc1nc(Nc2ccccc2S(=O)(=O)C(C)C)c2cn[nH]c2n1 [WZ4-49-1] | Flt3-ITD+ AML cell lines (MV4-11, MOLM-13, MOLM-14) | IC50 | ~1000 nM |

----------
Target: Flt3-ITD kinase domain (Homo sapiens)
Sequence (P36888 564-993): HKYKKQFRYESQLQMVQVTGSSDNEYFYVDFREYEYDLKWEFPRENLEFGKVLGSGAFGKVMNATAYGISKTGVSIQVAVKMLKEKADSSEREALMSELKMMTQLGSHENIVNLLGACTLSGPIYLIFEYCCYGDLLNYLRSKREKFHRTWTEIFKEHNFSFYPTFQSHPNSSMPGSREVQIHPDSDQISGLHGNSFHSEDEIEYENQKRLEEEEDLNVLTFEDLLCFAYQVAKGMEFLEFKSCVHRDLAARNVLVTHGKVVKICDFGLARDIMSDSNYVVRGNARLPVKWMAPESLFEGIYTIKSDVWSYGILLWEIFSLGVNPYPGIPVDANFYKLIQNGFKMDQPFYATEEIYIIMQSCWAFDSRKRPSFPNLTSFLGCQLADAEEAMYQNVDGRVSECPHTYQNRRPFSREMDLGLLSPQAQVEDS
Experiment: In vitro kinase assay (Z'-LYTE)
Format: biochemical
Conditions: ATP at Km
The following compounds are listed with their measured IC50 values.
measured_attribute: IC50 (nM)

| test_smiles | endpoint_result |
| --- | --- |
| CCN1CCN(Cc2ccc(NC(=O)c3ccc(C)c(Oc4ccnc5[nH]ccc45)c3)cc2C(F)(F)F)CC1 | 149 |
| COc1cc(N2CCC(O)CC2)ccc1Nc1nc(Nc2ccccc2S(=O)(=O)C(C)C)c2cn[nH]c2n1 | 1390 |
